Assay: self-splicing fitness, log relative to wild type (ln ratio); higher = more splicing; Tetrahymena group I intron in knt gene, E. coli kanamycin selection, DiMSum; sequences stand for … in CUCUCU…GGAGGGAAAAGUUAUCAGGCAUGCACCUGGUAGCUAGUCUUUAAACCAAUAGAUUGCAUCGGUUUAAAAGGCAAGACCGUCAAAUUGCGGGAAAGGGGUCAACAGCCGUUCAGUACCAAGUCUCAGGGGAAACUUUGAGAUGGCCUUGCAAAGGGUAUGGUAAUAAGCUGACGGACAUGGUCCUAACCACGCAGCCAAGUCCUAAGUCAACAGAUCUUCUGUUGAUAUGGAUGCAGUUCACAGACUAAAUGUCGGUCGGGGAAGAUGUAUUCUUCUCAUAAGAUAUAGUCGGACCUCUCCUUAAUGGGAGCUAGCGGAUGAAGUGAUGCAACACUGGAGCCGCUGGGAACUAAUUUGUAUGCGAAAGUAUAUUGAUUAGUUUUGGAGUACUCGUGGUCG;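 note: selection with 25 µg/mL kanamycin versus none on LB agar overnight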
Details: 30 °C
OUTCOME_MEASURE: self-splicing fitness (ln)
Field format: numeric only.

Use these answered entries as a reference point.
MONOMER_SEQUENCE	EXPERIMENTAL_RESULT
AUGCAGCAAUAUUACGUCCC	-1.53
UAAAAGCAAUAUUACGUAGU	-3.36
GGCAAGCAAUAUUACGUACU	-0.208
AUUCAGCAAUAUUACGAUGU	0.173
AGUGAGCAAUAUUACGCGAG	-2.91

## Task # input sequence: AUUAAGCAAUAUUACGGAGU ; wanted: its self-splicing fitness (ln)
## Result -1.69

## Task Fill blank: measured self-splicing fitness (ln) of the sequence CUGAAGCAAUAUUACGACCC is ____.
## Result -2.58

## Task So what's the measured self-splicing fitness (ln) for this one? CCCCAGCAAUAUUACGCGCG
## Result -2.69

====

Assay: self-splicing fitness, log relative to wild type (ln ratio); higher = more splicing; Tetrahymena group I intron in knt gene, E. coli kanamycin selection, DiMSum; sequences stand for … in CUCUCU…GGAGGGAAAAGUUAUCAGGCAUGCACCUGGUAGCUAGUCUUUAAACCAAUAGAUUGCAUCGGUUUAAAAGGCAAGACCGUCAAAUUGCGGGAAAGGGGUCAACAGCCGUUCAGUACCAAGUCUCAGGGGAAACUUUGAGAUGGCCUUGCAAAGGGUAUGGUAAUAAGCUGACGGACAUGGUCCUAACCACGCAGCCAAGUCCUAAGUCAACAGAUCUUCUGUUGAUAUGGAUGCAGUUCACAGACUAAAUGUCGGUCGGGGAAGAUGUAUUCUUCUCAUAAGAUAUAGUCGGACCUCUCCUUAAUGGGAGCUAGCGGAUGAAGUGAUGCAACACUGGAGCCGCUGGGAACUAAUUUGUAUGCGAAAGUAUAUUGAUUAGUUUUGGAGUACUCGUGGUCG
Settings: 37 °C
Note to self: class = bucket of self-splicing fitness (ln), per band 1 = under -2, band 2 = from -2 up to -0.8, band 3 = -0.8 and over

MONOMER_SEQUENCE	LABEL_VALUE
GGUCAGCAAUAUUACGUGUC	band 3
CGUUAGCAAUAUUACGACGA	band 2
AAUGAGCAAUAUUACGGGGG	band 2

Let's switch to this sequence now.
## Task Which bin, given its self-splicing fitness (ln), does AUAGAGCAAUAUUACGUCGA occupy?
## Result band 2
